Reported log10 of Trimeric HA Binding RLU values are given for each entry in this list.
TARGET_OF_ASSAY: recombinant homotrimeric HA, A/South Carolina/1/18 H1N1 (Influenza A virus A/South Carolina/1/18 (H1N1))
ASSAY_REMARKS: trimeric HA microarray, transfection set 5
ASSAY_CONDITIONS: remark: other sources report otherwise
Parameter value (number): base-10 log of Trimeric HA Binding RLU in RLU.

Examples with their reported log10 of Trimeric HA Binding RLU follow.
# BINDER, log10 of Trimeric HA Binding RLU
measured = [
    ("TCN-543 (5081_G23) (antibody, V domains shown) VH: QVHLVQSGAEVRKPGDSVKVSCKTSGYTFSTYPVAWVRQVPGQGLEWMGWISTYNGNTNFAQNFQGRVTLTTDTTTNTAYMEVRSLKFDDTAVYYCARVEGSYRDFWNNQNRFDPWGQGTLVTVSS VL: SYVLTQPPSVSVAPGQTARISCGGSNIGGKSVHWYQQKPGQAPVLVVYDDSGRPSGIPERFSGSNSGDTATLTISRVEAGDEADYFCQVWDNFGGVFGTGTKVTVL", 4.45),
    ("TCN-539 (5056_A08) (antibody, V domains shown) VH: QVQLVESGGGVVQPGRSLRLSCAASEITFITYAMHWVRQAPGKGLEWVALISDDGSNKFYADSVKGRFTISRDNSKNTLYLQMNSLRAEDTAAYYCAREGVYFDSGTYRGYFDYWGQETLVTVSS VL: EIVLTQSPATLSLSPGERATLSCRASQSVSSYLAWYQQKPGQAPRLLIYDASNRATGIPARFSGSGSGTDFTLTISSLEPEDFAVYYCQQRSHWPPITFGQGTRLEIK", 3.73),
    ("TCN-523 (5248_A17) (antibody, V domains shown) VH: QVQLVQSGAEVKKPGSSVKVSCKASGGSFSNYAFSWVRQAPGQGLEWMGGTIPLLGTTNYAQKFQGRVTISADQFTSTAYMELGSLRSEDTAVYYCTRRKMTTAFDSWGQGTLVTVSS VL: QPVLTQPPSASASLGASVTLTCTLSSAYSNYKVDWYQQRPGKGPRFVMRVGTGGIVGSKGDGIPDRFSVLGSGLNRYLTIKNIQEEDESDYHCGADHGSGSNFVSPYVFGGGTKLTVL", 4.72),
]

Query :: Entry TCN-557 (5081_A04) (antibody, V domains shown) VH: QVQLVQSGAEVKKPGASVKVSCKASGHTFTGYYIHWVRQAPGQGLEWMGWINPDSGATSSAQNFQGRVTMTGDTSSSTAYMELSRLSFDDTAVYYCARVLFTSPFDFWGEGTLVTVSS VL: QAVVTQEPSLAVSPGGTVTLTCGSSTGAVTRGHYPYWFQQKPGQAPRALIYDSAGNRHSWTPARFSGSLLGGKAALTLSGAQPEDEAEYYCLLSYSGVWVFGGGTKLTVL : reported log10 of Trimeric HA Binding RLU = ?
Result :: 4.65

Query :: Entry TCN-540 (5060_F05) (antibody, V domains shown) VH: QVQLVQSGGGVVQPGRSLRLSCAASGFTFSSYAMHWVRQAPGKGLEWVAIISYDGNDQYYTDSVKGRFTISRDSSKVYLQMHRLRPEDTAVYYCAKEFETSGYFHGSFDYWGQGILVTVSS VL: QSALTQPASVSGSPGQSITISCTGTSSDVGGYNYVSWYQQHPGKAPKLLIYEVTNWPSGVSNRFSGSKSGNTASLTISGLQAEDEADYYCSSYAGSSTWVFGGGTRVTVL : reported log10 of Trimeric HA Binding RLU = ?
Result :: 3.13
